Entries and their measured normalized growth follow.
ASSAY DETAILS: chemical genetic growth profiling, strain panel (AID 1159580);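 note: tested at 20 µM; growth read once vehicle control cultures reached saturation at 30 °C; 1 = growth at the plate median or of vehicle wells; lower values mean less growth of the strain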
SETUP CONDITIONS: S. cerevisiae deletion strains, growth OD, locus YIL125W, strain kgd1, hits give low values
Hit rate of the full screen: of about 5,500 compounds, about 2,000 (36%) were called active. Inconclusive results (about 18%) are left out. This is one part of the list.
EXPERIMENTAL ENDPOINT: normalized growth

[[record]]
compound = "CC1(C)O[C@H]2CC(=O)OC[C@]23[C@H]2CC[C@@]4(C)[C@H](c5ccoc5)OC(=O)[C@H]5O[C@]54[C@]2(C)C(=O)C[C@@H]13"
experimental_endpoint = "normalized growth"
value_measured = "0.997 (inactive)"

[[record]]
compound = "NC(=O)c1ncn([C@@H]2O[C@H](CO)[C@@H](O)[C@H]2O)n1"
experimental_endpoint = "normalized growth"
value_measured = "0.997 (inactive)"

[[record]]
compound = "CC(=O)O[C@@H]1CC(=O)[C@@]2(C)C(CC(=O)[C@]3(C)C2CC[C@@]2(C)[C@H](c4ccoc4)OC(=O)C4OC423)C1(C)C (some centres undefined)"
experimental_endpoint = "normalized growth"
value_measured = "1 (inactive)"

[[record]]
compound = "CC1(C)C=CC(=O)[C@@]2(C)C1CC(=O)[C@]1(C)C2CC[C@@]2(C)[C@H](c3ccoc3)OC(=O)C3OC321 (some centres undefined)"
experimental_endpoint = "normalized growth"
value_measured = "0.968 (inactive)"


Reference for the values: PubChem BioAssay AID1159580
